# test.system: Glucagon-like peptide 1 receptor (Homo sapiens)
# procedure.details: qHTS of GLP-1 Receptor Agonists: Hit Validation
# particulars: HEK293 GLP-1R, cAMP-response luciferase, 4-6 h; series mostly up to 46.1 µM
About 25 (2%) of roughly 1,300 compounds were called active. About 9% were inconclusive and are not listed. The call rests on the fitted dose curve; in most records, active means well fitted activation curve with a large enough effect; inconclusive means small, poorly fitted or top-dose-only effect; inactive means flat fitted curve, though single readings scatter. Only a selection was taken, and actives are over-represented in it overall.
Choose the fitting class; nothing outside yes for active, no for inactive is accepted.

Can you look up the reported call for CC(Cc1ccc(O)cc1)NCC(O)c1ccc(O)c(O)c1 (centres undefined) for me?
yes

Please state the recorded outcome for this compound: `CN1CCN=C(c2ccccc2)c2cc(Cl)ccc21`
no

So what was the verdict on `C[C@@H]1CN([C@H](C)CO)C(=O)CCCn2cc(nn2)CO[C@H]1CN(C)C(=O)Oc1ccc2ccccc2c1` in this test?
no

Others:
How was `N#Cc1c(/N=C/c2ccc(O)cc2O)sc2c1C1CCN2CC1` classified in this test?
no
